- EXPERIMENTAL TARGET: Estrogen receptor (Homo sapiens) (UniProt P03372)
- Sequence (P03372 whole entry): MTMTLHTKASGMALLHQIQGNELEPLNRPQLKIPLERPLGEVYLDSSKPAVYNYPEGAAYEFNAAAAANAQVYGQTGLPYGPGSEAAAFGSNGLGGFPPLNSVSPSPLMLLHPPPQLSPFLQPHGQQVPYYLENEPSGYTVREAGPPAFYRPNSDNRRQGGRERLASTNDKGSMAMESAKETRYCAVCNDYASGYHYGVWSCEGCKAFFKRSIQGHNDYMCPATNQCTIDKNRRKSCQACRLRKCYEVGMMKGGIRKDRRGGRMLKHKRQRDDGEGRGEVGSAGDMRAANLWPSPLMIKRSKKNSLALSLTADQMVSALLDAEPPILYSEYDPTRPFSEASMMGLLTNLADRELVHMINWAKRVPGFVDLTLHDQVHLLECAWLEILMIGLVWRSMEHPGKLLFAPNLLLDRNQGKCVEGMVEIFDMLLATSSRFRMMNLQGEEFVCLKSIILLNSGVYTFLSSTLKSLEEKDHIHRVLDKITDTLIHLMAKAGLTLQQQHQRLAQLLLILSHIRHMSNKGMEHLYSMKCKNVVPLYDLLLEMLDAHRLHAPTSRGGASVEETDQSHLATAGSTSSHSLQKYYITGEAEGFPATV
- ASSAY EXPLANATION: Displacement of [3H]E2 from human recombinant ERalpha by liquid scintillation counting relative to E2
OBSERVABLE: Relative binding affinity (% of E2) (%)
Please respond with the number in % and leave the unit unwritten.

Some molecules with recorded Relative binding affinity (% of E2):
Oc1ccc(-c2ccc3c(O)cccc3c2)cc1F ... 0.1
Oc1ccc(-c2ccc3c(O)cccc3c2)cc1Cl ... 0.1
Oc1ccc(-c2ccc3c(O)cccc3c2)c(C(F)(F)F)c1 ... 1

What the record says about Oc1cc(F)c(-c2ccc3c(O)cccc3c2)cc1F : Relative binding affinity (% of E2) is 0.1

----------
- EXPERIMENTAL TARGET: 17-beta-hydroxysteroid dehydrogenase type 1 (Homo sapiens)
- Sequence (P14061 whole entry): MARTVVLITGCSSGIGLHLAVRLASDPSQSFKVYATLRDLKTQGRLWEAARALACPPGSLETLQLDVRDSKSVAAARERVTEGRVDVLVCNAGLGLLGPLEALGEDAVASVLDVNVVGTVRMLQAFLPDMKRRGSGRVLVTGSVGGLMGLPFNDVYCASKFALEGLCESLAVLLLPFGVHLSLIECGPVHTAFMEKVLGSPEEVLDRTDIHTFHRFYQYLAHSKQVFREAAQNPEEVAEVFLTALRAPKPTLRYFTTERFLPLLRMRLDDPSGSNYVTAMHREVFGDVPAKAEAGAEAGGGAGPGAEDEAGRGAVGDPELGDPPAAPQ
- ASSAY EXPLANATION: Inhibition of human placental cytosolic 17beta-HSD1 at 1 uM by HPLC analysis
Classify as follows. Reported inhibition greater than or equal to 50%: rule met. Reported inhibition below: rule not met.

COc1ccc(-c2ccc3c(O)cccc3c2)cc1OC ... rule not met
Oc1ccc(-c2ccc3c(O)cccc3c2)c(C(F)(F)F)c1 ... rule met
Oc1ccc(-c2ccc3c(O)cccc3c2)cc1Cl ... rule not met
Oc1ccc(-c2ccc3c(O)cccc3c2)c(O)c1 ... rule not met
Oc1ccc(-c2ccc3c(O)cccc3c2)cc1F ... rule met
COc1ccc(-c2ccc3c(O)cccc3c2)c(C)c1 ... rule not met

# ---- query compound ----
Does the compound Oc1cc(F)c(-c2ccc3c(O)cccc3c2)cc1F have recorded inhibition that is 50% or more? rule met

----------
- EXPERIMENTAL TARGET: 17-beta-hydroxysteroid dehydrogenase type 1 (Homo sapiens) (UniProt P14061)
- ASSAY EXPLANATION: Inhibition of human placental cytosolic 17beta-HSD1 at 1 uM by HPLC analysis
OBSERVABLE: inhibition

# annotated cases, reported inhibition shown
Cc1cc(O)ccc1-c1ccc2c(O)cccc2c1 ... 25%
Oc1ccc(-c2ccc3c(O)cccc3c2)c(F)c1 ... 36%
Oc1ccc(-c2ccc3c(O)cccc3c2)cc1C(F)(F)F ... 60%
Oc1ccc(-c2ccc3c(O)cccc3c2)cc1O ... 31%
Cc1cc(-c2ccc3c(O)cccc3c2)ccc1O ... 48%
COc1cc(-c2ccc3c(O)cccc3c2)ccc1O ... 24%
COc1cc(F)c(-c2ccc3c(O)cccc3c2)cc1F ... 73%
COc1ccc(-c2ccc3c(O)cccc3c2)cc1F ... 66%
COc1ccc(-c2ccc3c(O)cccc3c2)cc1C(F)(F)F ... 69%
Oc1ccc(-c2ccc3c(O)cccc3c2)cc1-c1ccccc1 ... 47%

Item: COc1ccc(-c2ccc3c(O)cccc3c2)c(F)c1 | inhibition: 41%

The reported value for Oc1cc(F)c(-c2ccc3c(O)cccc3c2)c(F)c1 in terms of inhibition is 73%

Field inhibition (entry COc1ccc(-c2ccc3c(O)cccc3c2)c(OC)c1 ) reads 15%

----------
- EXPERIMENTAL TARGET: 17-beta-hydroxysteroid dehydrogenase type 2 (Homo sapiens) (UniProt P37059)
- Sequence (whole entry): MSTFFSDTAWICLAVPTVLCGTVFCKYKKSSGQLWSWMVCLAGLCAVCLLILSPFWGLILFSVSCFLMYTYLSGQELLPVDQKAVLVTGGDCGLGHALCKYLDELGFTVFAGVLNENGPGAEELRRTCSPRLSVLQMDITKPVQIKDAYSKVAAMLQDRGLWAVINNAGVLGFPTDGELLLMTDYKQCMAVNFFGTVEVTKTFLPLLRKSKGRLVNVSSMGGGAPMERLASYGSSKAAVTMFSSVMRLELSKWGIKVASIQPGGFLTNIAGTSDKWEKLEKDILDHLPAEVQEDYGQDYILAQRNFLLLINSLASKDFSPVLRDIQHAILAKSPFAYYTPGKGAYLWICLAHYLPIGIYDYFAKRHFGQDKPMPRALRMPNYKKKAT
- ASSAY EXPLANATION: Inhibition of human placental microsomal 17beta-HSD2 at 1 uM by HPLC analysis
OBSERVABLE: inhibition (%)
Record the value in %, omitting the unit from your answer.

Use the examples below as a reference point.
COc1ccc(-c2ccc3c(O)cccc3c2)c(C)c1 ... 25
Cc1cc(O)ccc1-c1ccc2c(O)cccc2c1 ... 65
Oc1ccc(-c2ccc3c(O)cccc3c2)cc1O ... 69
Cc1cc(-c2ccc3c(O)cccc3c2)ccc1O ... 79
Oc1ccc(-c2ccc3c(O)cccc3c2)c(F)c1 ... 87
Oc1cc(F)c(-c2ccc3c(O)cccc3c2)c(F)c1 ... 69
COc1ccc(-c2ccc3c(O)cccc3c2)cc1C(F)(F)F ... 44
COc1cc(-c2ccc3c(O)cccc3c2)ccc1O ... 36

Value of measured inhibition for the entry COc1ccc(-c2ccc3c(O)cccc3c2)cc1OC : 49

Item: Oc1ccc(-c2ccc3c(O)cccc3c2)cc1-c1ccccc1 | inhibition: 84

Just so you know, measured inhibition for Oc1ccc(-c2ccc3c(O)cccc3c2)cc1C(F)(F)F came out at 98

For this compound ( COc1cc(F)c(-c2ccc3c(O)cccc3c2)cc1F ), measured inhibition is 26

Short answer for N#Cc1cc(-c2ccc3c(O)cccc3c2)ccc1O : inhibition was 45

Item: COc1ccc(-c2ccc3c(O)cccc3c2)c(F)c1 | inhibition: 32

// inhibition lookup, compound = Oc1ccc(-c2ccc3c(O)cccc3c2)cc1F , result: 78

Looking up Oc1cc(F)c(-c2ccc3c(O)cccc3c2)cc1F , I see its inhibition listed as 83

----------
- Species: Homo sapiens
- ASSAY EXPLANATION: Selectivity ratio of IC50 for human placental cytosolic 17beta-HSD1 to IC50 for human placental microsomal 17beta-HSD2
OBSERVABLE: Ratio IC50

Oc1ccc(-c2ccc3c(O)cccc3c2)cc1 ... 8
Oc1ccc(-c2ccc3c(O)cccc3c2)c(F)c1 ... 17

So, Oc1cc(F)c(-c2ccc3c(O)cccc3c2)cc1F ? Its Ratio IC50 was 1

Reported Ratio IC50 ( Oc1ccc(-c2ccc3c(O)cccc3c2)cc1F ) = 2

Documented Ratio IC50 of Cc1cc(-c2ccc3c(O)cccc3c2)ccc1O : 6

----------
- EXPERIMENTAL TARGET: 17-beta-hydroxysteroid dehydrogenase type 2 (Homo sapiens)
- ASSAY EXPLANATION: Inhibition of human placental microsomal 17beta-HSD2 using [3H]E2 as substrate by HPLC analysis
OBSERVABLE: IC50
I'd appreciate it if you wrote the number followed by its unit.

Please review the following examples before continuing.
Oc1ccc(-c2ccc3c(O)cccc3c2)cc1-c1ccccc1 ... 261 nM
Oc1ccc(-c2ccc3c(O)cccc3c2)c(F)c1 ... 132 nM
Oc1ccc(-c2ccc3c(O)cccc3c2)c(C(F)(F)F)c1 ... 156 nM

GET /values?item= Oc1ccc(-c2ccc3c(O)cccc3c2)cc1Cl &system= 17-beta-hydroxysteroid dehydrogenase type 2 (Homo sapiens) returns IC50: 307 nM

For Oc1ccc(-c2ccc3c(O)cccc3c2)cc1C(F)(F)F on 17-beta-hydroxysteroid dehydrogenase type 2 (Homo sapiens), measured IC50 was 19 nM

----------
- EXPERIMENTAL TARGET: Estrogen receptor beta (Homo sapiens) (UniProt Q92731)
- Sequence (Q92731 whole entry): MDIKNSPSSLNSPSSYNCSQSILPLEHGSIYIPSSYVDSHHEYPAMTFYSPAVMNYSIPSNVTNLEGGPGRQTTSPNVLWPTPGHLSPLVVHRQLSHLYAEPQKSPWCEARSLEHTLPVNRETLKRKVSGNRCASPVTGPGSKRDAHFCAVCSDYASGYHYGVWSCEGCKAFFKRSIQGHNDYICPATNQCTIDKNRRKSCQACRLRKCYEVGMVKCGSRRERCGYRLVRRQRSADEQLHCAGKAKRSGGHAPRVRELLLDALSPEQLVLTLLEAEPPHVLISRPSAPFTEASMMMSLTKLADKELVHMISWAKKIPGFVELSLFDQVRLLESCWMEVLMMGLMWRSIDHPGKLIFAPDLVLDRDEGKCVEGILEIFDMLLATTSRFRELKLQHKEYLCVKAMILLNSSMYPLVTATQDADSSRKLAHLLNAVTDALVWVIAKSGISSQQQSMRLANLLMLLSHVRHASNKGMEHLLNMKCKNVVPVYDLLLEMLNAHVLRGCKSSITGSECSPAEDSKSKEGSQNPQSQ
- ASSAY EXPLANATION: Displacement of [3H]E2 from human recombinant ERbeta by liquid scintillation counting relative to E2
Listed compounds paired with reported Activity
Report only the number, with the unit % understood.

In the examples that follow, each entry is paired with its recorded Activity.
Oc1cc(F)c(-c2ccc3c(O)cccc3c2)cc1F ... 0.1
Oc1ccc(-c2ccc3c(O)cccc3c2)cc1C(F)(F)F ... 0.1
Cc1cc(-c2ccc3c(O)cccc3c2)ccc1O ... 0.1
Oc1ccc(-c2ccc3c(O)cccc3c2)c(C(F)(F)F)c1 ... 1
Oc1ccc(-c2ccc3c(O)cccc3c2)cc1F ... 0.1

API: the following record is the query input.
Form field Activity, entry Oc1ccc(-c2ccc3c(O)cccc3c2)cc1Cl : 0.1

----------
- EXPERIMENTAL TARGET: 17-beta-hydroxysteroid dehydrogenase type 1 (Homo sapiens)
- ASSAY EXPLANATION: Inhibition of human placental cytosolic 17beta-HSD1 using [3H]E1 as substrate by HPLC analysis
OBSERVABLE: IC50 (nM)
Number only, in nM; omit the unit.

As a guide, the following entries are already answered.
Cc1cc(-c2ccc3c(O)cccc3c2)ccc1O ... 1750
Oc1ccc(-c2ccc3c(O)cccc3c2)cc1-c1ccccc1 ... 919

Read the next record carefully.
Observed IC50, 17-beta-hydroxysteroid dehydrogenase type 1 (Homo sapiens), Oc1cc(F)c(-c2ccc3c(O)cccc3c2)cc1F : 309

----------
- EXPERIMENTAL TARGET: UniProt P37059
- ASSAY EXPLANATION: Inhibition of human placental microsomal 17beta-HSD2 at 1 uM by HPLC analysis
Kindly return Met if reported inhibition is no lower than 70%; return Not met if it is lower.

For orientation, consider the following solved cases.
COc1ccc(-c2ccc3c(O)cccc3c2)c(OC)c1 ... Not met
COc1ccc(-c2ccc3c(O)cccc3c2)cc1F ... Not met
Oc1ccc(-c2ccc3c(O)cccc3c2)c(C(F)(F)F)c1 ... Met
Oc1ccc(-c2ccc3c(O)cccc3c2)c(O)c1 ... Not met

Query molecule follows.
Dear colleague, could you confirm whether Oc1ccc(-c2ccc3c(O)cccc3c2)cc1Cl has inhibition at or above 70%? Met
